Test system: Cyclin-dependent kinase 1 ; CDK1 ; P06493 (Homo sapiens)
Sequence (P06493 whole entry, one chain of several): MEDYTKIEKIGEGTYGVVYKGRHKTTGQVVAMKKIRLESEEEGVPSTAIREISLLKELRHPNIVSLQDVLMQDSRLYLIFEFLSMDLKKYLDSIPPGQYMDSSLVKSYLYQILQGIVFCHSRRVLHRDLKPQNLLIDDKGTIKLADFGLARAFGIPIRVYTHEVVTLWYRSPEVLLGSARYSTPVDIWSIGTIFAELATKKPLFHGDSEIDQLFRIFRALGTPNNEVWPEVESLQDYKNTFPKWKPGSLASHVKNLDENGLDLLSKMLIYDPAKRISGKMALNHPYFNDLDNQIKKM
Measurement protocol: biochemical
pIC50: −log10 of the molar value.

| Molecule | pIC50 |
| --- | --- |
| COc1cc(F)ccc1-c1cc(Nc2cc(CS(C)(=N)=O)ccn2)ncc1F (stereo not shown) | < 5.00 |

====

Consider the following molecules and their measured pIC50 readings.
Test system: Cyclin-dependent kinase 4 ; CDK4 ; P11802 (Homo sapiens, UniProt P11802)
Sequence (P11802 whole entry, one chain of several): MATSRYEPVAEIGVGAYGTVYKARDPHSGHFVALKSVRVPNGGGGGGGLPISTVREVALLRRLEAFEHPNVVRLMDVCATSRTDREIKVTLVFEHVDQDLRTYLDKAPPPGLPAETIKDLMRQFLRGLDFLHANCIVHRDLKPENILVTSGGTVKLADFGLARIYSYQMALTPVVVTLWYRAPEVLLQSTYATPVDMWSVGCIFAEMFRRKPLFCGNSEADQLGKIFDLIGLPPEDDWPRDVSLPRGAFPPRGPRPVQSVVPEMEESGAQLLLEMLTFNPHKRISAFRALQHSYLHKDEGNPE
Measurement protocol: biochemical
pIC50: −log10 of the molar value.

| Molecule | Test system | pIC50 |
| --- | --- | --- |
| COc1cc(F)ccc1-c1ncnc(Nc2cccc(C[S@](C)(=N)=O)c2)n1 [BAY-1143572] | Cyclin-dependent kinase 4 ; CDK4 ; P11802 (Homo sapiens, UniProt P11802) | < 5.00 |
| COc1cc(F)ccc1-c1cc(Nc2cc(CS(C)(=N)=O)ccn2)ncc1F (centres unmarked) [BAY-1251152] | Cyclin-dependent kinase 4 ; CDK4 ; P11802 (Homo sapiens, UniProt P11802) | < 5.00 |
